# Study System: human GLUT5 (Homo sapiens, UniProt P22732)
# Sequence (P22732 1-501): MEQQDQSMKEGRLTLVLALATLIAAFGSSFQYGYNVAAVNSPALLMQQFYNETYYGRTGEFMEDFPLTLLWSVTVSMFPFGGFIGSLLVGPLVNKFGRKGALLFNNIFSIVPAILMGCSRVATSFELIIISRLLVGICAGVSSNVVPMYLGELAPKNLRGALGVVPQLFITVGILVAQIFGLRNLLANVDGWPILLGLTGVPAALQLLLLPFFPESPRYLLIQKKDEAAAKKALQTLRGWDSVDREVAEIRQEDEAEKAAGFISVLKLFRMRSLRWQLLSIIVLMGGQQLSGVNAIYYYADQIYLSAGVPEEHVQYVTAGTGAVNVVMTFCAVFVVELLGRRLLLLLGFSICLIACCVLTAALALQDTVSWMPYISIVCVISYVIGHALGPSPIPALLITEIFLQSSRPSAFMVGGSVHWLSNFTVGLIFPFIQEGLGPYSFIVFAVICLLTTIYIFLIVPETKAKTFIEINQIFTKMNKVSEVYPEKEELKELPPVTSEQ
Measured Endpoint: pIC50
Field pIC50 (float): negative decimal logarithm of the concentration in molar.

Exercise: Give its pIC50 value. Item: CS(=O)(=O)c1ccc(Nc2ccc3c(c2)OCO3)c([N+](=O)[O-])c1 [MSNBA]
Solution: 4.00
